target: Serine/threonine-protein kinase pim-3 (Homo sapiens) (UniProt Q86V86); test: Inhibition of Pim3 assessed as residual enzyme activity at 1 uM
Entries and their Activity values follow.
measured quantity: Activity (%)

{"molecule": "CC1(C)[C@@H]2CC[C@@]1(C)c1nc3cc4cn[nH]c4cc3nc12", "measured quantity": "Activity", "test result": 95}
{"molecule": "CC1Cc2nc3cc4cn[nH]c4cc3nc2C1C (racemic)", "measured quantity": "Activity", "test result": 73}
{"molecule": "c1n[nH]c2cc3nc4c(nc3cc12)CCC4", "measured quantity": "Activity", "test result": 81}
{"molecule": "Nc1cc2cn[nH]c2cc1N", "measured quantity": "Activity", "test result": 69}
{"molecule": "CC1(C)[C@H]2CC[C@]1(C)c1nc3cc4[nH]ncc4cc3nc12", "measured quantity": "Activity", "test result": 83}
{"molecule": "c1n[nH]c2cc3nc4c(nc3cc12)CCCC4", "measured quantity": "Activity", "test result": 58}
{"molecule": "CCc1nc2cc3cn[nH]c3cc2nc1CC", "measured quantity": "Activity", "test result": 84}
{"molecule": "CC1Cc2nc3cc4[nH]ncc4cc3nc2C1C (racemic)", "measured quantity": "Activity", "test result": 72}
{"molecule": "c1ccc(C2Cc3nc4cc5cn[nH]c5cc4nc3C2)cc1 (racemic)", "measured quantity": "Activity", "test result": 95}

* * *

target: Serine/threonine-protein kinase pim-1 (Homo sapiens) (UniProt P11309); assay: Inhibition of Pim1 assessed as residual enzyme activity at 1 uM
Sequence (P11309 whole entry, looked up): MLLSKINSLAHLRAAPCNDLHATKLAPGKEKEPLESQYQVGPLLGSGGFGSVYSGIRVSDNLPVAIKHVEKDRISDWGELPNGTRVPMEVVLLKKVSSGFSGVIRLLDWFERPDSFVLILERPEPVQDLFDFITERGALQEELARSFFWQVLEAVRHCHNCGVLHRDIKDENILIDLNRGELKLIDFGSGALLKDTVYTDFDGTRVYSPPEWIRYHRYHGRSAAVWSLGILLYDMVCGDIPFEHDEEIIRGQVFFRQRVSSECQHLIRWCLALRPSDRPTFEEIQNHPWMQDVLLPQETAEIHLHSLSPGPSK
Calls of active or inactive are those of the source. The calls are words filed in the database; no cut-off is given here.
measured quantity: Activity

{"compound": "CC1Cc2nc3cc4cn[nH]c4cc3nc2C1C (racemic)", "measured quantity": "Activity", "test result": "inactive"}
{"compound": "CCc1nc2cc3cn[nH]c3cc2nc1CC", "measured quantity": "Activity", "test result": "89%"}
{"compound": "Nc1cc2cn[nH]c2cc1N", "measured quantity": "Activity", "test result": "95%"}
{"compound": "CC1(C)[C@@H]2CC[C@@]1(C)c1nc3cc4cn[nH]c4cc3nc12", "measured quantity": "Activity", "test result": "88%"}
{"compound": "CC1Cc2nc3cc4[nH]ncc4cc3nc2C1C (racemic)", "measured quantity": "Activity", "test result": "88.5%"}
{"compound": "c1n[nH]c2cc3nc4c(nc3cc12)CCC4", "measured quantity": "Activity", "test result": "95%"}
{"compound": "c1ccc(C2Cc3nc4cc5cn[nH]c5cc4nc3C2)cc1 (racemic)", "measured quantity": "Activity", "test result": "inactive"}
{"compound": "c1n[nH]c2cc3nc4c(nc3cc12)CCCC4", "measured quantity": "Activity", "test result": "90%"}
{"compound": "CC1(C)[C@H]2CC[C@]1(C)c1nc3cc4[nH]ncc4cc3nc12", "measured quantity": "Activity", "test result": "96%"}

* * *

system: DU-145; assay: Antiproliferative activity against human DU145 cells assessed as inhibition of cell proliferation at 10 uM after 48 hrs by resazurin reduction test; assay type: functional; settings: DU-145, 48 h
Entries and their inhibition at 10 µM values follow.

{"smi": "CC1(C)[C@@H]2CC[C@@]1(C)c1nc3cc4cn[nH]c4cc3nc12", "inhibition at 10 µM": "< 50%"}
{"smi": "CC1(C)[C@H]2CC[C@]1(C)c1nc3cc4[nH]ncc4cc3nc12", "inhibition at 10 µM": "< 50%"}
{"smi": "Nc1cc2cn[nH]c2cc1N", "inhibition at 10 µM": "< 50%"}
{"smi": "c1n[nH]c2cc3nc4c(nc3cc12)CCC4", "inhibition at 10 µM": "< 50%"}
